Reference source: paper PMC6480224

- Tested on: MCF-7 breast cancer (+ve ER) cells
- assay method text: MTT cytotoxicity assay, MCF-7
- Format: cell-based
- cond: Homo sapiens, MCF7, 48 h, mean ± SD of three experiments, NA = no or negligible activity in initial crystal violet screening
parameter measured: pIC50
As a rule, pIC50 stands for the negative log10 of the concentration, concentration in M.

The recorded pIC50 for entry O=C1CC(c2ccco2)C(C(=O)Nc2ccc(Cl)cn2)(C(=O)Nc2ccc(Cl)cn2)C(c2ccco2)C1 (stereo not shown) equals 4.30

The recorded pIC50 for entry O=C1CC(c2ccc(C(F)(F)F)cc2)C(C(=O)Nc2ccc(Cl)cn2)(C(=O)Nc2ccc(Cl)cn2)C(c2ccc(C(F)(F)F)cc2)C1 (stereo not shown) equals 4.74

The recorded pIC50 for entry O=C1CC(c2ccc(Cl)cc2)C(C(=O)Nc2ccccn2)(C(=O)Nc2ccccn2)C(c2ccc(Cl)cc2)C1 (stereo not shown) equals 5.00

----------
- Test system: MDA-MB-231 breast cancer (−ve ER) cells
- assay method text: MTT cytotoxicity assay, MDA-MB-231
- Assay type: cell-based
- cond: Homo sapiens, MDA-MB-231, 48 h, mean ± SD of three experiments, NA = no or negligible activity in initial crystal violet screening
parameter measured: pIC50
As a rule, pIC50 stands for the negative log10 of the concentration, concentration in M.

The recorded pIC50 for entry O=C1CC(c2ccc(Cl)cc2Cl)C(C(=O)Nc2ccccn2)(C(=O)Nc2ccccn2)C(c2ccc(Cl)cc2Cl)C1 (stereo not shown) equals 4.74

The recorded pIC50 for entry O=C1CC(c2ccc(Cl)cc2)C(C(=O)Nc2ccccn2)(C(=O)Nc2ccccn2)C(c2ccc(Cl)cc2)C1 (stereo not shown) equals 5.15

The recorded pIC50 for entry O=C1CC(c2ccco2)C(C(=O)Nc2ccc(Cl)cn2)(C(=O)Nc2ccc(Cl)cn2)C(c2ccco2)C1 (stereo not shown) equals 4.35

The recorded pIC50 for entry O=C1CC(c2ccc(C(F)(F)F)cc2)C(C(=O)Nc2ccc(Cl)cn2)(C(=O)Nc2ccc(Cl)cn2)C(c2ccc(C(F)(F)F)cc2)C1 (stereo not shown) equals 5.30

----------
- Test system: MDA-MB-231 breast cancer (−ve ER) cells
- assay method text: MTT cytotoxicity assay, MDA-MB-231
- Format: cell-based
- cond: 48 h, mean ± SD of three experiments, NA = no or negligible activity in initial crystal violet screening
parameter measured: IC50 (µM)
Provide the reading as a plain figure in µM.

Tested on MDA-MB-231 breast cancer (−ve ER) cells, the item O=C1CC(c2ccc(Br)cc2)C(C(=O)Nc2ccccn2)(C(=O)Nc2ccccn2)C(c2ccc(Br)cc2)C1 (centres unmarked) showed IC50 equal to 5

Tested on MDA-MB-231 breast cancer (−ve ER) cells, the item N.N.[Cl][Pt][Cl] [Cisplatin, reference compound] showed IC50 equal to 15

----------
Give melting point for every item shown.

The recorded melting point for entry O=C1CC(c2cccs2)C(C(=O)Nc2ccc(Cl)cn2)(C(=O)Nc2ccc(Cl)cn2)C(c2cccs2)C1 (centres unmarked) equals 165 to 166 °C

The recorded melting point for entry O=C1CC(c2ccco2)C(C(=O)Nc2ccc(Cl)cn2)(C(=O)Nc2ccc(Cl)cn2)C(c2ccco2)C1 (centres unmarked) equals 160 to 161 °C

The recorded melting point for entry O=C1CC(c2ccc(F)cc2)C(C(=O)Nc2ccccn2)(C(=O)Nc2ccccn2)C(c2ccc(F)cc2)C1 (centres unmarked) equals 245 to 246 °C

The recorded melting point for entry O=C1CC(c2ccc(Cl)cc2Cl)C(C(=O)Nc2ccccn2)(C(=O)Nc2ccccn2)C(c2ccc(Cl)cc2Cl)C1 (centres unmarked) equals 210 to 211 °C

The recorded melting point for entry O=C1CC(c2cccc(Br)c2)C(C(=O)Nc2ccc(Cl)cn2)(C(=O)Nc2ccc(Cl)cn2)C(c2cccc(Br)c2)C1 (centres unmarked) equals 213 to 214 °C

The recorded melting point for entry COc1ccc(C2CC(=O)CC(c3ccc(OC)cc3)C2(C(=O)Nc2ccc(Cl)cn2)C(=O)Nc2ccc(Cl)cn2)cc1 (centres unmarked) equals 203 to 204 °C

The recorded melting point for entry O=C1CC(c2ccc(C(F)(F)F)cc2)C(C(=O)Nc2ccc(Cl)cn2)(C(=O)Nc2ccc(Cl)cn2)C(c2ccc(C(F)(F)F)cc2)C1 (centres unmarked) equals 138 to 139 °C

The recorded melting point for entry O=C1CC(c2cccc([N+](=O)[O-])c2)C(C(=O)Nc2ccc(Cl)cn2)(C(=O)Nc2ccc(Cl)cn2)C(c2cccc([N+](=O)[O-])c2)C1 (centres unmarked) equals 174 to 175 °C
